Data credit: patent US20130171098A1

# System: HCV replicon cells
# assay name: HCV replicon FRET / luciferase assay
# Assay type: cell-based, Hepatitis C virus
# condition info: Hepatitis C virus
pEC50: −log10 of the molar value.
Quick list: pEC50 per entry.

Please review the following examples before continuing.
molecule	pEC50
CNS(=O)(=O)NC(=O)c1ccc2c(C3CCCCC3)c3n(c2c1)CC1(C(=O)N2C4CCC2CN(C)C4)CC1c1cc(OC)ccc1-3 (stereo not drawn) [drawing 29]	6.30 to 9.00
COc1ccc2c(c1)C1CC1(C(=O)N1C3CCC1CN(C)C3)Cn1c-2c(C2CCCCC2)c2ccc(C(=O)NS(=O)(=O)N3CCOCC3)cc21 (stereo not drawn) [drawing 31]	6.30 to 9.00

Please examine the following record next.
Value of measured pEC50 for the entry COc1ccc2c(c1)C1CC1(C(=O)N1C3CCC1CN(C)C3)Cn1c-2c(C2CCCCC2)c2ccc(C(=O)NS(=O)(=O)NC3CC3)cc21 (stereo not drawn) [drawing 42] : 6.30 to 9.00
